Tested on: human limbal stem cells
Experiment: Human limbal stem cell population expansion and measurement (expansion factor, p63alpha-positive cells)
Assay type: cell-based
Details: 10 micromolar in XVIVO15 medium, two passages; ratio of expanded population to seeded cells
ASSAY_ENDPOINT: Expansion factor

compound=CCCNc1nc(-c2c[nH]nc2C(F)(F)F)nc2cnccc12 observed=991
compound=CC(C)Nc1nc(-c2ccncc2)nc2cnccc12 observed=1275
compound=FC(F)(F)C1(Nc2nc(-c3ccncc3)cc3cnccc23)CC1 observed=1241
compound=CC(C)(CO)Nc1nc(-c2ccncc2)nc2cnccc12 observed=1160
compound=Cc1n[nH]cc1-c1nc(NC2(C)CC2)c2ccncc2n1 observed=1205
compound=c1cc(-c2nc(NC3CCCC3)c3ccncc3n2)ccn1 observed=1048
compound="FC(F)(F)C1CN(c2nc(-c3ccncc3)nc3cnccc23)CCN1 (centres unmarked)" observed=1051
compound=CCCNc1nc(-c2ccncc2)nc2cnccc12 observed=1423
compound="CC1CCCC1Nc1nc(-c2ccncc2)nc2cnccc12 (centres unmarked)" observed=976
compound=CC(C)(C)Nc1cc(-c2ccncc2)nc2cnccc12 observed=1717
compound=CC(C)(O)CC(C)(C)Nc1nc(-c2ccncc2)nc2cnccc12 observed=2029
